- Test System: T1, human CD4 on 293T cells stably expressing CD4 (CD4-293T) (human, UniProt P01730 26-458)
- T1 construct: whole, on cells; also called 293T-CD4 cells; hCD4 (FACS)
- Measurement Description: FACS, chimeric antibody on CD4-293T cells
Metric Name: EC50
A complete answer gives the number and then names the unit.

Can you share its EC50? I mean this binder: Chimeric MT412 anti-CD4 antibody (antibody, human IgG1, kappa, V domains shown) VH: QIQLVQSGPELKKPGETVKISCKASGYTFTDYSMHWVKQAPGKDLKWMGWINTETGEPTYADDFKGRFAFSLETSASTAYLQINNLKNEDTATYFCAREDYYGHDGFLYWGQGTLVTVSS VL: DIVMTQSHKFMSTSVGDRVSITCKASQDVVTTVAWYQQKPGQSPKLLIYWASLRHTGVPDRFTGSGSGTDFTLTISNVQFEDLADYFCQQYSSYPYTFGGGTKLEIKR 0.515 µg/mL

Looking for the measured EC50 of Chimeric 10C2 anti-CD4 antibody (antibody, human IgG1, kappa, V domains shown) VH: EVKLQQSGTELMKPGASVKISCKATGYTFSSYWIEWIKQRPGRGLEWIGEILPGSGSTNYNEEFTGRATFTADTFSNTAYMQLSSLTSEDSAVYYCARSVSASNWYFDVWGAGTTVTVSS VL: DIVMTQSPASLAVSLGQRATISCRASQSVSTSSYSYMHWYQQKPGQPPKFLIKYASNLESGVPARFSGSGSGTDFTLNIHPVEEEDTATYYCQHSWEIPPTFGGGTKLEIKR , can you help? 0.882 µg/mL

Entry Chimeric 29B7 anti-CD4 antibody (antibody, human IgG1, kappa, V domains shown) VH: QVQLQQSGAELAKPGASVKMSCKTSADSLNTHWMHWVKQRPGQGLEWIGYINPYTGSGEYSQKFKGKATLTADISSSTAYMQLISLTSEDSAVYYCAYDSTGAMDYWGQGTSVTVSS VL: DIKMTQSPSSMYASLGERITITCKASQDINRYLSWFQQKPGKSPKTPIYRADRSVDGVPSRFSGSGSGQDYSLTISSLEYEDMGIYYCQQYDEFPYTFGGGTKLEIKR : reported EC50 = ? 0.401 µg/mL

Look up EC50 for this binder: Chimeric 2B6 anti-CD4 antibody (antibody, human IgG1, kappa, V domains shown) VH: EVQLQESGPSLVKPSQTLSLTCSVTGDSITSGYWNWIRKFPGHKLEFLGYISFADTTNYNPSLKSRVSITRDTSKNQFDLQLKSVTTEDTATYHCARDDYGYYAMDYWGQGISVTVSS VL: DIHLTQTTSSLSASLGDRVTIICRASQDIDNYLNWYQLKPDGTLKLLIYYTSRLHSGVPSRFSGSGSGTEYSLTISNLEREDVATYFCQQGNTLPTFGAGTKLELKR 0.669 µg/mL
